# measured on: T1, recombinant biotinylated CD71 extracellular domain (Sino Biologics) with an N-terminal 6His tag (human, UniProt P02786 89-760, biotinylated (site not stated))
# T1 construct: extracellular domain; also called hCD71; huCD71 ECD
# protocol summary: primary solution ELISA screen, signal on hCD71 over HSA
Recorded hCD71:HSA for the following binders
Reply with just the number.

binder: SEQ ID NO 32 (designed binder, not shown: small tags and cut ends, FN3 domain, hit of the apical domain panning) MLPAPKNLVVSRVTEDSARLSWQGVARAFDSFLITYREQIFAGEVIVLTVPGSERSYDLTGLKPGTEYGVTIAGVKGGWRSKPLNAESTT
number: 75
//
binder: SEQ ID NO 20 (designed binder, not shown: small tags and cut ends, FN3 domain, hit of the apical domain panning) MLPAPKNLVVARVTEDSARLSWTAPDAAIDSFPIDYSEYWWGGEAIVLTVPGSERSYDLTGLKPGTEYPVLITGVKGGYRSGPLSAIFTT
number: 43
//
binder: SEQ ID NO 74 (designed binder, not shown: small tags and cut ends, FN3 domain, hit of the apical domain panning) MLPAPKNLVVSRVTEDSARLSWTAPDAAFDSFSITYLEWWNLGEAIVLTVPGSERSYDLTGLKPGTEYMVTIPGVKGGMSSYPLSAIFTT
number: 56

Task item: Entry under review: SEQ ID NO 85 (designed binder, not shown: small tags and cut ends, FN3 domain, hit of the apical domain panning) MLPAPKNLVVSRVTEDSARLSWTAPDAAFDSFIIEYFEPIPIGEAIVLTVPGSERSYDLTGLKPGTEYAVNIYGVKGGYLSHPLSAIFTT . Reported hCD71:HSA?
Reply: 33
